- system.name: NRAS Q61K (Homo sapiens (Human), UniProt P01111+P62937, Q61K)
- Sequence (P01111 whole entry Q61K): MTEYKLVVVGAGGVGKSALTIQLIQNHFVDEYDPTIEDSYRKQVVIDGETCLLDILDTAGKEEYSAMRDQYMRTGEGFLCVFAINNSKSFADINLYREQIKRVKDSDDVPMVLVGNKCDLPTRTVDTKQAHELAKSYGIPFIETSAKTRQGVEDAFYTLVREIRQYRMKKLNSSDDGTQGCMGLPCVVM
- Sequence (P62937 whole entry): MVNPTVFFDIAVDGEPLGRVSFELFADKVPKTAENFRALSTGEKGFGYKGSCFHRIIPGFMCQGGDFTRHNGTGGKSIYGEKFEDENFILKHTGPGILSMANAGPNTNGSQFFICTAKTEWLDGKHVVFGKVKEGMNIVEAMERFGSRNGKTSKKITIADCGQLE
- assay.method.text: Ras-Raf (BRAF RBD) disruption / FRET / MOA assay, NRAS Q61K
- Type: biochemical
- condition.summary: NRAS Q61K; Ras-Raf disruption/FRET/MOA assay; read-out: IC50* NRAS Q61K FRET data
assay.metric: IC50

CCn1c(-c2cccnc2[C@H](C)OC)c2c3cc(ccc31)-c1cccc(c1)C[C@H](NC(=O)[C@@H](COC1CN(C(=O)C#CC(C)(C)N(C)C(C)C)C1)C(C)C)C(=O)N1CCC[C@H](N1)C(=O)OCC(C)(C)C2 (atropisomer, axis not shown) = > 10 µM
CCn1c(-c2cccnc2[C@H](C)OC)c2c3cc(ccc31)-c1csc(n1)C[C@H](NC(=O)CCO[C@@H]1CCN(C(=O)C#CC(C)(C)N3CCC3)C1)C(=O)N1CCC[C@H](N1)C(=O)OCC(C)(C)C2 (atropisomer, axis not shown) = 1 to 10 µM

Data origin, for the record: patent US11566007B2
